TARGET OF ASSAY: T1, human GITR, membrane bound (on activated human T cells and on 3A9-hGITR cells) (human, UniProt Q9Y5U5 26-241)
T1 construct: whole, on cells; the cell is named under assay; also called huGITR; TNFRSF18
T1 sequence (looked up): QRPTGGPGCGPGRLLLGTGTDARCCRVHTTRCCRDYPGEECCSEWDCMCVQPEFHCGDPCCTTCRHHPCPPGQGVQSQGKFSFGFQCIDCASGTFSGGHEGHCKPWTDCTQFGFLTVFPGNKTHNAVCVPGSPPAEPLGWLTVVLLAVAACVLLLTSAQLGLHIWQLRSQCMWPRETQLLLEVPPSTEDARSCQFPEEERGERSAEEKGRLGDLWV
EXPERIMENT NOTES: FACS binding to 3A9-hGITR transfectant, Geo-MFI (PE); EC50 table beside the curves; unit from the axis
REPORTED PROPERTY: pEC50
pEC50 is defined as minus the log10 of a concentration measured in mol/L.

// sample 28F3 VH CDR3 mutant M98I, D106E, M111L (antibody, V domains shown, also called D3) VH: QVQLVESGGGVVQPGRSLRLSCAASGFTFSSYGMHWVRQAPGKGLEWVAVIWYEGSNKYYADSVKGRFTISRDNSKNTLYLQMNSLRAEDTAVYYCARGGSIVRGEYYYGLDVWGQGTTVTVSS VL: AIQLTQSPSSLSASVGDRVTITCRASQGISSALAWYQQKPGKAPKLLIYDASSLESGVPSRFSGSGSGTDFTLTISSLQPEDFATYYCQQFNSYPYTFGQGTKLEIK , its pEC50 was 8.97

// sample 28F3 VH CDR3 mutant M98I, M111L (antibody, V domains shown, also called D1) VH: QVQLVESGGGVVQPGRSLRLSCAASGFTFSSYGMHWVRQAPGKGLEWVAVIWYEGSNKYYADSVKGRFTISRDNSKNTLYLQMNSLRAEDTAVYYCARGGSIVRGDYYYGLDVWGQGTTVTVSS VL: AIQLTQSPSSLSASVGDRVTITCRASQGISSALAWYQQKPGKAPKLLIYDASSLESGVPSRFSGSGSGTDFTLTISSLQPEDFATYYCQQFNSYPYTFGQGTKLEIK , its pEC50 was 8.99

// sample 28F3 VH CDR3 mutant M98L, M111L (antibody, V domains shown, also called C1) VH: QVQLVESGGGVVQPGRSLRLSCAASGFTFSSYGMHWVRQAPGKGLEWVAVIWYEGSNKYYADSVKGRFTISRDNSKNTLYLQMNSLRAEDTAVYYCARGGSLVRGDYYYGLDVWGQGTTVTVSS VL: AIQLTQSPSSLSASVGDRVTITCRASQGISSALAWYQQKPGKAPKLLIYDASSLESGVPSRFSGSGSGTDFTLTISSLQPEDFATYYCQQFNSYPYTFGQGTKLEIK , its pEC50 was 9.17
